Just for reference, ChEMBL document CHEMBL1811844 is where these values come from.

system: Hepatitis B virus; assay: Antiviral activity against adefovir-resistant Hepatitis B virus harboring polymerase N584T mutant in human HepG2 cells assessed as inhibition of HBsAg secretion by ELISA; type: functional, organism-based

[
  {
    "COMPOUND": "Fc1cccc(Cl)c1C1CC(c2ccc(Cl)cc2)Nc2ncnn21 (racemic)",
    "TEST SYSTEM": "Hepatitis B virus",
    "EC50 / µM": 5.6
  }
]

###

tested on: Hepatitis B virus; experiment: Antiviral activity against lamivudine/telbivudine-resistant Hepatitis B virus harboring polymerase M552I mutant in human HepG2 cells assessed as inhibition of HBsAg secretion by ELISA; type: functional, organism-based

[
  {
    "COMPOUND": "Fc1cccc(Cl)c1C1CC(c2ccc(Cl)cc2)Nc2ncnn21 (racemic)",
    "EC50 [µM]": 9.1
  }
]
